- SYSTEM TESTED: Matrix protein 2 (Influenza A virus)
- Sequence (P06821 whole entry): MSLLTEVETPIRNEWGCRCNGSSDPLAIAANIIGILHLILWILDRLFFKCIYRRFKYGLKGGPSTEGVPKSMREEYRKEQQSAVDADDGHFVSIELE
MEASUREMENT NAME: Kd (nM)
Your answer should be a plain number; it is taken to be in nM.

I am curious: what Kd value has been reported for CC(C)(N)C12CC3CC(CC(C3)C1)C2 ?
130

---

- SYSTEM TESTED: UniProtKB P06821
- STUDY CONDITIONS: A/Udorn/72 (H3N2)
- Description: Binding affinity to C-terminal amidated influenza A virus A/Udorn/72 (H3N2) M2 transmembrane domain (22 to 46 residues) in DPC micelles at pH 8 assessed as change in enthalpy by ITC analysis
MEASUREMENT NAME: deltaH (kcal/mol)
Lab book: enter the figure in kcal/mol, no units written.

Examples with answers:
molecule=C[C@H](N)C12CC3CC(CC(C3)C1)C2 unit_of_measurement=kcal/mol recorded_value=-7.73
molecule=NC12CC3CC(CC(C3)C1)C2 unit_of_measurement=kcal/mol recorded_value=-6.66
molecule=C[C@@H](N)C12CC3CC(CC(C3)C1)C2 unit_of_measurement=kcal/mol recorded_value=-7.54
molecule="CC(N)C12CC3CC(CC(C3)C1)C2 (racemic)" unit_of_measurement=kcal/mol recorded_value=-7.6

// lookup deltaH for CC(C)(N)C12CC3CC(CC(C3)C1)C2
-4.19
